- experimentalSystem: T1, CD19 (UniProt P15391 20-556, limits assumed)
- T1 sequence (looked up): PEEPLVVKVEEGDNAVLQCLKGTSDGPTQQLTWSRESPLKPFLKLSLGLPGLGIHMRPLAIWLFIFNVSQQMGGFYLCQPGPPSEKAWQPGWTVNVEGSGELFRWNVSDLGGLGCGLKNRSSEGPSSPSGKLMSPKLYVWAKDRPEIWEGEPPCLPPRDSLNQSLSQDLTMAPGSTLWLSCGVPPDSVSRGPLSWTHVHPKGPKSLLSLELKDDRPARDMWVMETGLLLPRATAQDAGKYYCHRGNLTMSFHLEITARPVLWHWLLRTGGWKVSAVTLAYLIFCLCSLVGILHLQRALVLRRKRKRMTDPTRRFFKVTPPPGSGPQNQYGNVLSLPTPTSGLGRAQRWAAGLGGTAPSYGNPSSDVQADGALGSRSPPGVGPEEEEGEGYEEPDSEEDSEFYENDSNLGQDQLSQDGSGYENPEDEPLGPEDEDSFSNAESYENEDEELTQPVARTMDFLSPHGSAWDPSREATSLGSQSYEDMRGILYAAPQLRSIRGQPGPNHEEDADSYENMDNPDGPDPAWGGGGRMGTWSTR
- assaySummary: cell-based or functional assay
observedProperty: EC50 of cytotoxicity (LDH), sCAR-T cells + switch vs CD19+ RS4;11, assay DTR-5-50 (PBMC)

binder	reported
hFMCL2-LCNT/hFMCH4c (Fab, V domains shown) VH: QVQLQESGPGLVKPSETLSVTCTVSGVSLPDYGVSWIRQPPGKGLEWLGVIWGSETTYYNSALKSRLTISKDNSKNQVSLKMSSLTAADTAVYYCAKHYYYGGSYAMDYWGQGTLVTVSS VL: DIQMTQSPSSLSASVGDRVTITCRASQDISKYLNWYQQKPGKAPKLLIYHTSRLHSGVPSRFSGSGSGTDYTLTISSLQPEDFATYYCQQGATLPYTFGQGTKLEIK	9.2 pM
hFMCL2b/H4c(Q1E-V20L)-WT (antibody, V domains shown) VH: EVQLQESGPGLVKPSETLSLTCTVSGVSLPDYGVSWIRQPPGKGLEWLGVIWGSETTYYNSALKSRLTISKDNSKNQVSLKMSSLTAADTAVYYCAKHYYYGGSYAMDYWGQGTLVTVSS VL: DIQMTQSPSSLSASVGDRVTITCRASQDISKYLNWYQQKPGKAVKLLIYHTSRLHSGVPSRFSGSGSGTDYTLTISSLQPEDFATYFCQQGATLPYTFGQGTKLEIK	14.4 pM
